Recorded TBIL for the following substances
PROTOCOL DETAILS: Tolerability in Balb/c mice, plasma chemistry markers (Example 10)
Assay type: in vivo
PROTOCOL CONDITIONS: male Balb/c mice, 50 mg/kg subcutaneously twice a week for four weeks, day 26
Strand notation (5' to 3'): a small letter for the sugar, then the base; units joined by * are phosphorothioate-linked, units joined directly phosphodiester-linked; [ ] holds rarer units or linkages, { } end groups; capitals alone tell only the bases. k = constrained ethyl (cEt); [5mC] = 5-methylcytosine; d = 2'-deoxy (DNA)
API: value field is a number in mg/dL; no unit string.

SUBSTANCE: 715609 (kT*kG*kT*dG*dT*dA*dG*dG*d[5mC]*dT*dG*dA*d[5mC]*kT*kT*kA; antisense) [compound 715609]
TBIL, mg/dL: 0.67

Any idea what its TBIL is? The substance is 715484 (kT*kA*k[5mC]*dT*d[5mC]*dT*dT*dT*dG*dG*dA*dA*dA*k[5mC]*k[5mC]*kA; antisense) [compound 715484] 0.15

Cool, now 715582 (kG*kT*k[5mC]*dA*dA*dG*d[5mC]*d[5mC]*dT*dG*dT*d[5mC]*dT*kG*kG*kA; antisense) [compound 715582] 2.09

###

Tested on: Yap1 mRNA
PROTOCOL DETAILS: Dose-dependent inhibition of human Yap1 in A-431 cells (Example 6, 5,000 cells per well, RTS4814)
Type: cell-based
PROTOCOL CONDITIONS: Table 54; A-431 cells, free uptake, 444 nM, approximately 48 hours, RTS4814
Strand notation (5' to 3'): a small letter for the sugar, then the base; units joined by * are phosphorothioate-linked, units joined directly phosphodiester-linked; [ ] holds rarer units or linkages, { } end groups; capitals alone tell only the bases. k = constrained ethyl (cEt); [5mC] = 5-methylcytosine; d = 2'-deoxy (DNA)
Binary classification by % UTC 444 nM, with 80 % UTC as an inclusive lower bound for TRUE; all other cases are FALSE.

SUBSTANCE: 715414 (kA*kA*k[5mC]*dA*dT*dG*d[5mC]*dT*dG*dT*dG*dG*dA*kG*kT*k[5mC]; antisense) [compound 715414]
ASSIGNED LABEL: TRUE

Has 716481 (antisense kT*k[5mC]*kA*dG*d[5mC]*dA*dT*dA*dG*dA*dA*dG*dT*kA*kG*kG) [compound 716481] a recorded % UTC 444 nM greater than or equal to 80 % UTC? TRUE

Do the same for 716577 (antisense kT*k[5mC]*kT*dG*dT*d[5mC]*dA*dG*dT*dT*dA*dT*d[5mC]*k[5mC]*kT*kA) [compound 716577] please TRUE

Again, but for 716496 (antisense kG*kA*kA*dG*dA*dG*dA*dT*dT*dT*dT*dA*dT*kG*k[5mC]*k[5mC]) [compound 716496] TRUE

# repeat for 715582 (kG*kT*k[5mC]*dA*dA*dG*d[5mC]*d[5mC]*dT*dG*dT*d[5mC]*dT*kG*kG*kA; antisense) [compound 715582] FALSE

Same read-out for 715435 (kG*kG*kT*d[5mC]*dT*dT*dG*dT*dT*d[5mC]*dT*dT*dA*kT*kG*kG; antisense) [compound 715435] ? FALSE

Moving on to the next substance: 716493 (antisense kA*k[5mC]*kA*dT*dT*dG*dA*dA*dA*dG*dA*d[5mC]*d[5mC]*k[5mC]*kT*kT) [compound 716493] TRUE

Repeat for the following substance: 716502 (antisense k[5mC]*kA*k[5mC]*dA*dG*dT*dG*dA*dT*dT*dG*d[5mC]*dA*kT*kT*kT) [compound 716502] FALSE

###

Test system: Yap1 mRNA
PROTOCOL DETAILS: Dose-dependent inhibition of human Yap1 in A-431 cells (Example 7, 10,000 cells per well, RTS36584)
Format: cell-based
PROTOCOL CONDITIONS: Table 58, 62.5 nM, free uptake, A-431 cells 10,000 cells per well, 48 hours
Strand notation (5' to 3'): a small letter for the sugar, then the base; units joined by * are phosphorothioate-linked, units joined directly phosphodiester-linked; [ ] holds rarer units or linkages, { } end groups; capitals alone tell only the bases. k = constrained ethyl (cEt); [5mC] = 5-methylcytosine; d = 2'-deoxy (DNA)
Reported Yap1 mRNA, % UTC is given for each of the following substances.

SUBSTANCE: 958532 (kG*kA*kA*dG*dT*dA*dG*dG*dA*dG*d[5mC]*dA*dA*kG*kT*k[5mC]; antisense) [compound 958532]
TARGET SYSTEM: Yap1 mRNA
Yap1 mRNA, % UTC: 44 % UTC
--
SUBSTANCE: 958547 (k[5mC]*kA*k[5mC]*dA*dT*dA*d[5mC]*dT*d[5mC]*dT*dA*dG*dT*kT*kA*k[5mC]; antisense) [compound 958547]
TARGET SYSTEM: Yap1 mRNA
Yap1 mRNA, % UTC: 74 % UTC
--
SUBSTANCE: 958477 (kA*kT*kT*dT*d[5mC]*d[5mC]*dG*dG*dT*dG*d[5mC]*dA*dT*kG*kT*kG; antisense) [compound 958477]
TARGET SYSTEM: Yap1 mRNA
Yap1 mRNA, % UTC: 37 % UTC

Give the measured Yap1 mRNA, % UTC of 958542 (kT*kA*kT*dA*dG*dT*dA*dT*dT*d[5mC]*dT*dA*dT*k[5mC]*k[5mC]*kA; antisense) [compound 958542] . 70 % UTC

Then this substance: 958527 (kG*kT*kA*dA*dG*dT*dA*dA*dG*dA*dA*d[5mC]*dA*kA*kT*k[5mC]; antisense) [compound 958527] 74 % UTC

Likewise for 958742 (kA*kG*k[5mC]*dA*dA*dT*dA*dT*dG*dG*dT*dA*dT*kT*kA*kG; antisense) [compound 958742] ? 70 % UTC

###

Examples of substances with documented YAP1 (% UTC) follow.
Test system: Yap1 mRNA
PROTOCOL DETAILS: Antisense inhibition of human Yap1 in A-431 cells by cEt gapmers, single dose (Example 4, RTS4814)
Format: cell-based
PROTOCOL CONDITIONS: Table 16; A-431 cells, 5,000 cells per well, free uptake, 2,000 nM, approximately 48 hours; RTS4814; normalized to RIBOGREEN; Yap1 mRNA relative to untreated control cells
Strand notation (5' to 3'): a small letter for the sugar, then the base; units joined by * are phosphorothioate-linked, units joined directly phosphodiester-linked; [ ] holds rarer units or linkages, { } end groups; capitals alone tell only the bases. k = constrained ethyl (cEt); [5mC] = 5-methylcytosine; d = 2'-deoxy (DNA)

Examples with their reported YAP1 (% UTC) follow.
SUBSTANCE: 1075714 (kA*kA*kT*dT*dA*d[5mC]*dA*dA*dT*d[5mC]*dA*dA*d[5mC]*k[5mC]*kT*kT; antisense) [Compound 1075714]
YAP1 (% UTC): 42 % UTC

SUBSTANCE: 1075362 (k[5mC]*kA*kG*dG*dA*dA*dA*dA*dA*dT*d[5mC]*dT*dA*kG*kG*kT; antisense) [Compound 1075362]
YAP1 (% UTC): 50 % UTC

SUBSTANCE: 1075938 (kG*kA*kA*dT*dA*dT*dA*dT*dG*dG*dG*dT*dT*kT*k[5mC]*kA; antisense) [Compound 1075938]
YAP1 (% UTC): 55 % UTC

SUBSTANCE: 1075458 (antisense k[5mC]*k[5mC]*kA*d[5mC]*dA*dA*dT*dA*dT*dA*d[5mC]*dT*d[5mC]*k[5mC]*kA*kA) [Compound 1075458]
YAP1 (% UTC): 7 % UTC

SUBSTANCE: 1076322 (kA*kT*kT*dT*dA*d[5mC]*dA*dA*dG*dT*dG*dA*dG*k[5mC]*kA*k[5mC]; antisense) [Compound 1076322]
YAP1 (% UTC): 21 % UTC

Which value of YAP1 (% UTC) has been reported for 1075266 (antisense kT*kA*kT*dT*dA*dG*dG*dA*d[5mC]*dA*dA*dA*dG*kT*kA*k[5mC]) [Compound 1075266] in the records? 57 % UTC

###

PROTOCOL DETAILS: Tolerability in Sprague-Dawley rats, kidney function, urine total protein to creatinine ratio (Example 20)
PROTOCOL CONDITIONS: male Sprague-Dawley rats, 50 mg/kg subcutaneously weekly for 6 weeks (total 7 doses)
Strand notation (5' to 3'): a small letter for the sugar, then the base; units joined by * are phosphorothioate-linked, units joined directly phosphodiester-linked; [ ] holds rarer units or linkages, { } end groups; capitals alone tell only the bases. k = constrained ethyl (cEt); [5mC] = 5-methylcytosine; d = 2'-deoxy (DNA)
PROPERTY: URINE P/C ratio (total protein to creatinine ratio)
# output: bare number, no unit

Would you please look over these solved cases?
SUBSTANCE: 1076481 (k[5mC]*kT*kA*dA*dG*dT*dA*dA*dG*dG*dT*dT*dT*k[5mC]*k[5mC]*k[5mC]) [compound 1076481]
OBSERVED MEASUREMENT: 5
--
SUBSTANCE: 1074755 (k[5mC]*kA*k[5mC]*dT*dT*dT*dT*dA*d[5mC]*dA*dT*dT*dA*kG*kG*kA; antisense) [compound 1074755]
OBSERVED MEASUREMENT: 5
--
SUBSTANCE: 1076187 (kG*kA*kT*dT*dT*dA*dG*dG*dA*dT*dG*d[5mC]*dA*kT*kG*kG; antisense) [compound 1076187]
OBSERVED MEASUREMENT: 5

Then there is this substance:
Consider the substance 1097224 (k[5mC]*kT*k[5mC]*dT*dT*dA*dT*dA*dT*dG*dG*dT*dT*kT*kT*kG; antisense) [compound 1097224] and give its measured URINE P/C ratio (total protein to creatinine ratio). 87
